System: LOX IMVI
EXPERIMENTAL DETAILS: NCI tumour cell line growth inhibition, 48 h
Calls of active or inactive are those of the source. Rule as the data show it: active = GI50 up to about 1.1 µM and inactive = higher.

| COMPOUND | GI50 |
| --- | --- |
| O=C(O)[C@@H]1CCS(=O)(=O)N1 | > 100 µM (inactive) |
| CO[C@@H]1C=C[C@@]23c4cc5c(cc4CN(C[C@@H]2O)[C@H]3C1)OCO5 [(+)-HAEMANTHAMINE] | 6.38 µM (inactive) |
| COc1cc2c(c(O)c1OC)C(=O)[C@@H]1CCC(=O)N1C2 | > 100 µM (inactive) |
| Cc1ccc(S(=O)(=O)OCC/C(=C\[Si](C)(C)C)c2ccccc2)cc1 | > 100 µM (inactive) |
| Cc1ccc(/N=c2/oc3c(ccc4ccccc43)nc2Nc2ccc(C)cc2)cc1 | > 100 µM (inactive) |
| OCCCCCNc1nc(O)c2[nH]cnc2n1 | > 100 µM (inactive) |
| [O-][N+]1=NC(c2ccccc2)=C1c1ccccc1 | > 50 µM (inactive) |
| C=CC(c1ccccc1)C1(O)c2cccc(O)c2C(=O)c2c(O)cccc21 (stereo not given) | 16.4 µM (inactive) |
| COc1ccc(C2C(=O)c3c(OC)cc(OC)cc3OC2c2cccnc2)cc1 (stereo not given) | 61.2 µM (inactive) |
| C[C@H]1C[C@@H]2[C@H]([C@@H](O)C[C@@]3(C)[C@H]2CC[C@]3(O)C(=O)CO)[C@@]2(C)C=CC(=O)C=C12 | > 100 µM (inactive) |

---

As shown below, each of these compounds has a reported GI50 value.
Tested on: RPMI-8226
EXPERIMENTAL DETAILS: NCI tumour cell line growth inhibition, 48 h
Active and inactive are the calls of the source. Cut-off read from the data, not from the text of the source: active = GI50 up to about 1.1 µM and inactive = higher.

| COMPOUND | GI50 |
| --- | --- |
| CC1=C(C)C1[N+](=O)[O-] | > 100 µM (inactive) |
| O=c1[nH]c(=O)n(CCOc2ccc(Cl)cc2)cc1Nc1ccccc1 | > 100 µM (inactive) |
| O=c1c(C(c2cc(OCc3ccccc3)cc(OCc3ccccc3)c2)c2c(O)oc3ccccc3c2=O)c(O)oc2ccccc12 | 1.66 µM (inactive) |
| CCOC(=O)c1cn2c(ccc3sc4ccccc4c(=O)c32)n1 | > 100 µM (inactive) |
| Nc1nc(=O)[nH][nH]1 | > 100 µM (inactive) |
| OC1c2ccccc2CCC1CN1CCN(CCOC(c2ccc(F)cc2)c2ccc(F)cc2)CC1 (stereo unspecified) | 5.77 µM (inactive) |
| COCOC1C=CCCCC2=CC(C)=C(CC1)O2 (stereo unspecified) | > 100 µM (inactive) |
| CCCCCCCCCCCCCCCC(=O)OC(COC(C)=O)CO[PH](=O)O (stereo unspecified) | 78.2 µM (inactive) |
| COc1cc2c(c(O)c1OC)C(=O)[C@@H]1CCC(=O)N1C2 | > 100 µM (inactive) |
| CN(C)CCNC(=O)Cn1ccc(=O)c2ccc([N+](=O)[O-])cc21 | > 100 µM (inactive) |
| CCN(CC)c1c(C)nnn1C1OC(COC(C)=O)C(OC(C)=O)C(OC(C)=O)C1OC(C)=O (stereo unspecified) | 28.6 µM (inactive) |

---

Test system: LOX IMVI
EXPERIMENTAL DETAILS: NCI tumour cell line growth inhibition, 48 h
Calls of active or inactive are those of the source. Rule as the data show it: active = GI50 up to about 1.1 µM and inactive = higher.

| MOLECULE | GI50 |
| --- | --- |
| O=S(=O)(O)c1ccc(-c2c3nc(c(-c4ccc(S(=O)(=O)O)cc4)c4ccc([nH]4)c(-c4ccc(S(=O)(=O)O)cc4)c4nc(c(-c5ccc(S(=O)(=O)O)cc5)c5ccc2[nH]5)C=C4)C=C3)cc1 | 37.8 µM (inactive) |
| COc1ccc2c(c1)O[C@@H]1[C@@H](OC3OC(CO)C(O)C(O)C3O)Oc3cc(OC)c(OC)cc3[C@]1(O)C2=O (stereo partly drawn) | > 100 µM (inactive) |
| O=C(O)C1C(C(=O)O)C23CC2(C(=O)O)C2(C(=O)O)CCC3=C3CCCC312 (stereo not drawn) | 10.6 µM (inactive) |
| CC(C)(C)C1=Nc2c(Br)cc(C(C)(C)C)cc2C(C(F)(F)F)(C(F)(F)F)O1 | 16.2 µM (inactive) |
| CCN(CC)CCCNC(=O)c1ccc([N+](=O)[O-])cc1O | > 100 µM (inactive) |
| O=c1c(C(c2cc(OCc3ccccc3)cc(OCc3ccccc3)c2)c2c(O)oc3ccccc3c2=O)c(O)oc2ccccc12 | 15.3 µM (inactive) |
| CCOC(=O)/C(C(N)=O)=C(/O)c1cnccn1 | > 100 µM (inactive) |
| O=C1COc2ccc([N+](=O)[O-])cc2C(=O)C1 | > 10 µM (inactive) |

---

Test system: HOP-92
EXPERIMENTAL DETAILS: NCI tumour cell line growth inhibition, 48 h
Where a name gives a salt, the structure may show the parent alone. Activity calls are given as the source filed them. No stated cut-off is given here; in the data, active = GI50 up to about 1.1 µM and inactive = higher.
Labels: true (active), false (inactive)

| MOLECULE | MEASURED TARGET | QUALITATIVE LABEL |
| --- | --- | --- |
| COc1cc(C(CN)N(C)C)cc(OC)c1OC (stereo not given) | HOP-92 | false |
| CCN1CCC(O)(c2ccccc2)C(C(=O)c2ccccc2)C1 (stereo not given) | HOP-92 | false |
| CC1C[C@]2(C)C(NCCN)=Nc3ccccc3[C@@H]2N(C)c2ccccc21 (stereo not given in full) | HOP-92 | false |
| CSC1=C(C#N)C(=O)N(c2ccc(C)cc2)C(=S)C1C#N (stereo not given) | HOP-92 | false |
| Clc1ccc2c(SCC3CO3)c3ccccc3nc2c1 (stereo not given) | HOP-92 | false |
| COC(=O)c1c(O)ccc2c1c1cc3ccccc3c(O)c1n2CCc1ccc(OC)c(OC)c1 | HOP-92 | false |
| CC1C/C(=N\N(C)C)C(C#N)(C#N)C1(C#N)C#N (stereo not given) | HOP-92 | false |
| O=c1c2ccccc2n2nnc3ccc(NCCCNCCNCCCNc4ccc5nnn6c7ccccc7c(=O)c4c56)c1c32 | HOP-92 | false |
| CC(=O)N(O)CCCCCNC(=O)CCC(=O)N(O)CCCCCNC(=O)CCC(=O)N(O)CCCCCN [DEFEROXAMINE HYDROCHLORIDE] | HOP-92 | false |
| O=C(NC1CC1)c1c(O)[nH]c(=S)[nH]c1=O | HOP-92 | false |
| Cc1cc2c(=O)c(C)n[nH]c2c(C#N)c1C | HOP-92 | false |
| CC(C)(C)NC(=O)N1N=C(c2ccccc2)C1c1ccccc1 (stereo not given) | HOP-92 | false |
| COc1ccc2c(c1)[C@@H]1c3cc(OC)c(OC)cc3CCN1CCC2 | HOP-92 | false |
| COc1ccc(-c2cc(=O)c3cc(C)c(C)c(C(=O)O)c3o2)cc1 | HOP-92 | true |
| C=CCC1(CN(C)C)CC/C(=C\c2ccc3c(c2)OCO3)C1=O (stereo not given) | HOP-92 | false |
| COc1ccc(/N=C2\C(=S)N(c3ccc(OC)cc3)/C(=N/S(=O)(=O)c3ccccc3)N2c2ccccc2)cc1 | HOP-92 | false |
| Cc1ccc(C(=O)Oc2ccccc2)cc1/N=N/N(C)C | HOP-92 | false |
| O=C1CCSSCCC(=O)Nc2ccccc2N1 | HOP-92 | false |
| CCc1c(OC(C)=O)c2c(NC3OCC(OC(C)=O)C(OC(C)=O)C3OC(C)=O)nc(SC)nc2oc1=O (stereo not given) | HOP-92 | false |
| S=c1sc2sc(=S)sc2s1 | HOP-92 | false |
| CC(=O)N[C@@H](Cc1ccc(O)cn1)C(=O)NCc1ccc(Cl)cc1 | HOP-92 | false |
| O=C1C[C@@H](c2ccccc2)O[C@@H](c2ccccc2)C1 | HOP-92 | false |
| COc1ccc(NC(=O)CC/C(CC(=O)C(C)(C)C)=N\NC(=O)C(N)=O)cc1 | HOP-92 | false |
| Cc1ccc(S(=O)(=O)/N=C2/N(C)CCCS2(=O)=O)cc1 | HOP-92 | false |
| NNc1ccccc1Cl | HOP-92 | false |
| C=C1C(=O)C23CC1CCC2C12CO[C@@H]4OCC(C)(CC[C@@H]1OC3=O)C42 (stereo not given in full) | HOP-92 | false |
| COc1ccccc1N1CCN(CCCNC(=O)c2cc(Cl)c(N)c(Cl)c2)CC1 | HOP-92 | false |
| CSCCC(NC(c1ccccc1)c1ccccc1)[PH](=O)O (stereo not given) | HOP-92 | false |
| COc1ccc2nccc(/C=C/c3ccc(N(C)C)cc3)c2c1 | HOP-92 | false |
| O=C(CC(C(=O)c1cccs1)c1ccsc1)c1ccccc1 (stereo not given) | HOP-92 | false |
| CN1CCc2cc3c4cc2C1Cc1ccc(cc1)Oc1cc(ccc1O)CC1c2c(cc(O)c(c2O4)O3)CCN1C (stereo not given) | HOP-92 | false |
| O=c1[nH]c(=O)n(CCOc2ccc(Cl)cc2)cc1Nc1ccccc1 | HOP-92 | false |
| Nc1ncnc2c1ccn2CC#CCO | HOP-92 | false |
| CCCOc1nc(N)c2cnn(C3CCCCO3)c2n1 (stereo not given) | HOP-92 | false |
| CN(C)CCNC(=O)Cn1ccc(=O)c2ccc([N+](=O)[O-])cc21 | HOP-92 | false |
| O=c1c(C(c2cc(OCc3ccccc3)cc(OCc3ccccc3)c2)c2c(O)oc3ccccc3c2=O)c(O)oc2ccccc12 | HOP-92 | false |
| COC(=O)c1nn(C(=N)c2ccc(Cl)cc2)c2c1CCC2 | HOP-92 | false |
| CC(C)(C)OC(=O)c1cnc(Cl)cn1 | HOP-92 | false |
| CC(C)CN(CC#N)CC(C)C | HOP-92 | false |
| CC(CC(C#N)(c1ccccc1)c1ccccc1)N1CCCCC1 (stereo not given) | HOP-92 | false |
| O=[N+]([O-])/C(C(Cl)=C(Cl)Cl)=C(\SCc1ccccc1)N1CCCCC1 | HOP-92 | true |
| CC(=O)Oc1ccc(OC(Oc2ccccc2)c2ccccc2)cc1 (stereo not given) | HOP-92 | false |
| COC(=O)CC(NC(=O)OCc1ccccc1)C(C(C)=O)C(=O)OCc1ccccc1 (stereo not given) | HOP-92 | false |
| Cn1ccnc1CC(C)(O)c1ccccc1 (stereo not given) | HOP-92 | false |
| CC1=Nc2c(ccc3c2C(=O)c2ccccc2C3=O)NC(c2ccncc2)C1 (stereo not given) | HOP-92 | false |

The measured values listed here are drawn from ChEMBL document CHEMBL1201862.
